Each entry below carries its recorded pIC50.
# tested on: human KRAS G12D protein (Homo sapiens, UniProt P01116, G12D)
# Construct: A human KRAS G12D protein (corresponding to amino acid 2-169)
# Sequence (P01116 2-169 isoform P01116-2 G12D): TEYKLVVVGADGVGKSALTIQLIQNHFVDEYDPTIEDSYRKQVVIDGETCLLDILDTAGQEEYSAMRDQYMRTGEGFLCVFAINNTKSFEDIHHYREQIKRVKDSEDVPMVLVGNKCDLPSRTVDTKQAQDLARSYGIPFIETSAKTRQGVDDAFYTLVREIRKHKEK
# test protocol: HTRF-based nucleotide exchange assay detecting GTP binding to K-Ras
# condition details: human KRAS G12D (amino acid 2-169), SOS1 mediated exchange
pIC50: −log10 of the molar value. Where a name gives a salt, the structure may show the parent alone.

[[record]]
compound = "N#Cc1c(OCC23CCCN2C[C@H](F)C3)nc(N2CC3CCC(C2)N3)c2c1CN(c1cc(O)cc3ccccc13)CC2 (some centres unmarked) [Ex 25, Hydrochloride]"
test_result = "> 7.60"

[[record]]
compound = "N#Cc1c(OCC23CCCN2C[C@H](F)C3)nc(N2CC3CCC(C2)N3)c2c1CN(c1cccc3cccc(Cl)c13)CC2 (some centres unmarked) [Ex 17, Hydrochloride]"
test_result = "7.30 to 7.60"

[[record]]
compound = "N#Cc1c(OCC23CCCN2C[C@H](F)C3)nc(N2CC3CCC(C2)N3)c2c1CN(Cc1ccccc1)CC2 (some centres unmarked) [Ex 19, Hydrochloride]"
test_result = "< 6.00"

[[record]]
compound = "N#Cc1c(OCC2(CN3CCOCC3)CC2)nc(N2C[C@H]3CC[C@@H](C2)N3)c2c1CN(Cc1ccccc1)CC2 [Ex 24, Hydrochloride]"
test_result = "< 6.00"


Shift focus to the following entry.
The recorded pIC50 for entry CN1CCC[C@H]1COc1nc(N2CC3CCC(C2)N3)c2c(c1C#N)CN(c1cccc3cccc(Cl)c13)CC2 [Ex 16, Hydrochloride] equals 6.00 to 6.70

====

# Test system: CT-26
# test protocol: In vitro cell proliferation assay in KRASG12 cell lines (CT-26)
# Assay type: cell-based
# condition details: Mus musculus, CT26; Cell Line CT-26; Cell Titer-Glo, 3 day (2D) or 7 day (3D)
pIC50: −log10 of the molar value. Where a name gives a salt, the structure may show the parent alone.
test readout: pIC50

[[record]]
compound = "N#Cc1c(OCC23CCCN2C[C@H](F)C3)nc(N2CC3CCC(C2)N3)c2c1CN(c1cccc3cccc(Cl)c13)CC2 (stereo partly drawn) [Ex 17, Hydrochloride]"
tested_on = "CT-26"
test_readout = "pIC50"
test_result = "5.30 to 5.60"


The recorded pIC50 for entry N#Cc1c(OCC23CCCN2C[C@H](F)C3)nc(N2CC3CCC(C2)N3)c2c1CN(c1cc(O)cc3ccccc13)CC2 (stereo partly drawn) [Ex 25, Hydrochloride] equals 5.00 to 5.30

The recorded pIC50 for entry CN1CCC[C@H]1COc1nc(N2CC3CCC(C2)N3)c2c(c1C#N)CN(c1cccc3cccc(Cl)c13)CC2 [Ex 16, Hydrochloride] equals > 5.60
